FYI, the data here is from patent US20150336943A1.

- assay_target: dopaminergic receptor D3 (Homo sapiens)
- Construct: expressed in transfected cells; host or cells: recombinant human cells (so in the source)
- Sequence (P35462 whole entry): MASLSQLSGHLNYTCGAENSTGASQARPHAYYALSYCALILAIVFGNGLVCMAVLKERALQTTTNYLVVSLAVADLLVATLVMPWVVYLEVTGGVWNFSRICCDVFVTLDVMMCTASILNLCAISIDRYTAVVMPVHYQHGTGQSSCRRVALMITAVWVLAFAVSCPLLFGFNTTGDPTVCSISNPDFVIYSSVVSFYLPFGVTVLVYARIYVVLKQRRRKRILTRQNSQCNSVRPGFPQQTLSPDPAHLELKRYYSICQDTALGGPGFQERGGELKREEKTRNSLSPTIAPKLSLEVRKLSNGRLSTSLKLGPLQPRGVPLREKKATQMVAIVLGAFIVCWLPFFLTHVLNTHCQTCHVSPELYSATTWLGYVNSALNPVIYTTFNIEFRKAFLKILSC
- test_summary: Inhibition constants (Ki) for dopaminergic receptor D3 in recombinant cells
- Type: binding
- experimental_context: read-out: pKi D3 (converted)
measured_property: Ki (nM)

Worked cases, answers included:
{"columns": ["chem_smiles", "units_of_measure", "val"],
 "data": [
  ["O=C1COCCN1CCC1CCN(C[C@H]2COc3c(F)cc(Cl)cc3O2)CC1", "nM", 0.347],
  ["O=C1OC[C@@H](CO)N1CCC1CCN(C[C@H]2COc3c(F)cc(Cl)cc3O2)CC1", "nM", 0.347]
]}

A. O=C1OC[C@H](Cc2ccccc2)N1CCC1CCN(C[C@H]2COc3ccc(OC(F)(F)F)cc3O2)CC1
B. O=C1OCCN1CCC1CCN(C[C@H]2COc3ccc(F)cc3O2)CC1
C. O=C1OC[C@H](Cc2ccccc2)N1CCC1CCN(C[C@H]2COc3cc(O)ccc3O2)CC1
Q: Put these in order: smallest Ki first, largest last. Put the labels in the requested order and list them out.
A: A, C, B
(A: 0.355 nM, C: 1.29 nM, B: 6.46 nM)
